// provenance: the supplement of paper PMC8728848

Biological target: Gal(b1-3)GlcNAc(b1-3)Gal(b1-4)GlcNAc(b1-2)Man(a1-3)[Gal(b1-3)GlcNAc(b1-3)Gal(b1-4)GlcNAc(b1-2)Man(a1-6)]Man(b1-4)GlcNAc(b1-4)GlcNAc
Assay: glycan array binding signal (z-score within array); higher = stronger binding
Conditions: glycan notation: IUPAC condensed, linker removed
Many of the other results were omitted from the sample, so the strongest signals are more common in it than they were.
metric_name: glycan array binding signal (z-score)
Returns: the value as a bare number; no unit string appended.

The examples below pair each entry with its known result.
Als3-2 (Candida albicans) (protein) KTITGVFNSFNSLTWSNAATYNYKGPGTPTWNAVLGWSLDGTSASPGDTFTLNMPCVFKFTTSQTSVDLTAHGVKYATCQFQAGEEFMTFSTLTCTVSNTLTPSIKALGTVTLPLAFNVGGTGSSVDLEDSKCFTAGTNTVTFNDGGKKISINVDFERSNVDPKGYLTD
2.3
Epa12 (Candida glabrata) (protein) MGSSHHHHHHSSGLVPRGSHMLEPDNSLQIFDSFLSNPSKYPLGCSPKITNPKKGLSMELYSYPYRKKGSHPCWDPAYLDPNFPRVGYKKNKLIARVDGVSGDINFNFHPKRQCTPIADYLPPNFNYNEPITTTNFTMLLYGYFKPKVTGLHTFDISADDLLFMNFGAGNAFDCCRRDSTADTFGNYVAWAIWGRRIVRNKLTVRLDKGIYYPLRLFFNNRDYYGQMRLTFKTEHGSERITDFSDYFFSVDDTSEGCPGLITYESECADVKSSTVLETDYITIQAEKE
-0.34
Vd2LysM (Verticillium dahliae) (protein) YRRTCSHTGKGEGWYIIRRGDNFNAVAADFCTSTNVLTEWNHISTITDNMVNTKIKVPCRWNAGKQRDCLKDQKSSNGWYHIVSGDELKDIAYDFCTTSGSLAGMNGISNPDYIKANTDIVVPCSWN
0.151

Query: If you can, please state the reported glycan array binding signal (z-score) value of SJCP1084 (Schistosoma japonicum) (protein) MRIINLVIISTALLLINLLQTKSQANGEDTKNGTPDDPGLTKSTELKVEVQALLKDKKTNMRVKWNENLLDNTKPEYHNLRDEACELLLQIVRSVVPLSQDDGECKDVTFTKYVVGTKDGAVNVKLTITFKDSVAINQKPMDLKLKLENDFKNLQSESTLKATKPTFTVKVEKRLIPISKPQTTPPTTAKNDASKENVGDIGGEDSTVPTAAPATAASANEEKDEGDKDNKDSQHPNVLTSNVNDRNLIIALVALMILAIGVALTAAVKQR .
Reply: 0.617
